# Tested on: CCRF-CEM leukemia
# assayProtocol: NCI-60 one-dose screen, 48 h
# conditionSummary: 10 µM unless noted
This is part of a sample that, as a whole, favours compounds with a hit. Of some 83,000 tested, about 20% had one in any assay. Calls of active or inactive are those of the source. Rule for the calls: active = growth percent below 10; inactive = the rest.
Outcome field: choose from true (active), false (inactive)

| molecule | qualitativeLabel |
| --- | --- |
| O=C(O)c1cn(C2CC2)c2cc(N3CCN(Cc4nc5c(cnn5-c5ccc([N+](=O)[O-])cc5)c(=O)[nH]4)CC3)c(F)cc2c1=O | false |

Query block: Dear all, I need the recorded test outcome for "Nc1c(C(=O)Nc2cccc3c2OCCO3)sc2nc3c(cc12)CN(Cc1ccccc1)CC3" , thank you.
Result block: false

Query block: Same lookup for "O=C(/C=C/c1ccc(Cl)cc1)/C=C/c1cc2ccccc2[nH]c1=O" , please.
Result block: true
